Test system: K. pneumoniae (MDR00244)
method-description: MIC and MBC by broth microdilution
Type: cell-based
reported-conditions: ratio in parentheses
This listing pairs compounds with measured MBC/MIC.
The answer should be written as a number, with no unit following it.

// worked examples, MBC/MIC included
N#CC(=Cc1cn(-c2ccccc2)nc1-c1ccccc1)C1=NC(=O)CS1 : 0.5
Cc1c(NC(=O)CC2=NC(=O)CS2)c(=O)n(-c2ccccc2)n1C : 1
Cc1c(NN=C(C#N)C2=NC(=O)CS2)c(=O)n(-c2ccccc2)n1C : 2

Would you mind telling me what MBC/MIC value was observed for `CCOC(=O)c1c(N)csc1-c1cn(-c2ccccc2)nc1-c1ccc(C)cc1` ?
1

Next up: `N#CC(=Cc1ccccc1O)C1=NC(=O)C(=Cc2cn(-c3ccccc3)nc2-c2ccccc2)S1`
1

###

Tested on: C. albicans200
method-description: Single-step resistance selection
Format: cell-based, Candida albicans
reported-conditions: 4 × MIC, 48 h
outcome-measure: Single-step resistance frequency (mutation frequency)

// worked examples, Single-step resistance frequency (mutation frequency) included
N#CC(=Cc1cn(-c2ccccc2)nc1-c1ccccc1)C1=NC(=O)CS1 : 1.58 × 10^–7
CCOC(=O)c1c(N)csc1-c1cn(-c2ccccc2)nc1-c1ccc(C)cc1 : 3.10 × 10^–6
Cc1c(NN=C(C#N)C2=NC(=O)CS2)c(=O)n(-c2ccccc2)n1C : 3.20 × 10^–8
N#CC(=Cc1ccccc1O)C1=NC(=O)C(=Cc2cn(-c3ccccc3)nc2-c2ccccc2)S1 : 4.40 × 10^–7
Cc1c(NC(=O)CC2=NC(=O)CS2)c(=O)n(-c2ccccc2)n1C : 3.50 × 10^–8

With those in mind, consider the next molecule.
Would you mind telling me what Single-step resistance frequency (mutation frequency) value was observed for CC(=O)N1CCN(c2ccc(OCC3COC(Cn4ccnc4)(c4ccc(Cl)cc4Cl)O3)cc2)CC1 (stereo not drawn) [KCA, Ketoconazole, reference compound] ?
3.19 × 10^–8

###

Test system: C. albicans100 (MDR00100)
method-description: MIC and MFC by broth microdilution
Type: cell-based, Candida albicans
reported-conditions: Candida albicans, read-out: MIC (mean ± SEM), C. albicans100; broth microdilution
outcome-measure: MIC
Mention the unit after the number when you answer.

// worked examples, MIC included
CCOC(=O)c1c(N)csc1-c1cn(-c2ccccc2)nc1-c1ccc(C)cc1 [Compound 7b] : 0.25 µg/mL
Cc1c(NC(=O)CC2=NC(=O)CS2)c(=O)n(-c2ccccc2)n1C [Compound 10] : 0.95 µg/mL
CC(=O)N1CCN(c2ccc(OCC3COC(Cn4ccnc4)(c4ccc(Cl)cc4Cl)O3)cc2)CC1 (centres unmarked) [KCA, Ketoconazole, reference compound] : 0.49 µg/mL
N#CC(=Cc1cn(-c2ccccc2)nc1-c1ccccc1)C1=NC(=O)CS1 [Compound 4a] : 0.45 µg/mL

Would you mind telling me what MIC value was observed for N#CC(=Cc1ccccc1O)C1=NC(=O)C(=Cc2cn(-c3ccccc3)nc2-c2ccccc2)S1 [Compound 5a] ?
0.43 µg/mL

###

System: C. albicans200 (MDR00200)
method-description: Agar well-diffusion antimicrobial sensitivity assay
Format: cell-based, Candida albicans
reported-conditions: Candida albicans, read-out: Inhibition Zone (IZ)
outcome-measure: zone of inhibition at 100000 µg/mL (mm)
The response must be a number in mm with no trailing unit.

N#CC(=Cc1cn(-c2ccccc2)nc1-c1ccccc1)C1=NC(=O)CS1 : 31
Cc1ccc(-c2nn(-c3ccccc3)cc2C=c2sc(=CC#N)[nH]c2=O)cc1 : 15
N#CC(=Cc1ccc([N+](=O)[O-])cc1)C1=NC(=O)C(=Cc2cn(-c3ccccc3)nc2-c2ccccc2)S1 : 24

Would you mind telling me what zone of inhibition at 100000 µg/mL value was observed for `CCOC(=O)c1c(N)csc1-c1cn(-c2ccccc2)nc1-c1ccccc1` ?
25

All figures here come from paper PMC8851638.
